Biological target: T1, human DLL3 on cells (human, UniProt Q9NYJ7 27-618)
T1 construct: Endogenous on H1184 and SHP77; Cell line is named under assay; also called H1184; DLL3/H82
T1 sequence: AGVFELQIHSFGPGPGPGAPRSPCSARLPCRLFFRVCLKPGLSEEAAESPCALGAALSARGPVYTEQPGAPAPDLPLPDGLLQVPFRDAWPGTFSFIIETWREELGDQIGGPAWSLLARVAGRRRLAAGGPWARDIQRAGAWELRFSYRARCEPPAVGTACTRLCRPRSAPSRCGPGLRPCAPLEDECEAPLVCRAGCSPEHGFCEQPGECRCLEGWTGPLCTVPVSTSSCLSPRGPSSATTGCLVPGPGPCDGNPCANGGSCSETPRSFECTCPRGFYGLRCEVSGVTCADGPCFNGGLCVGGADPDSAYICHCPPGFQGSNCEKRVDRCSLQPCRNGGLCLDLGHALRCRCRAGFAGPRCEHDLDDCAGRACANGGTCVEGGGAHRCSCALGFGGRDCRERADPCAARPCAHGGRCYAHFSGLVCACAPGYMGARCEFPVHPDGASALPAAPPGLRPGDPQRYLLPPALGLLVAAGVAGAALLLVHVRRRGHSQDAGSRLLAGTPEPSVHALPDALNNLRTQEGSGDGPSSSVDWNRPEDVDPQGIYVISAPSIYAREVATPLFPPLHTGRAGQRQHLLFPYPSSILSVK
Assay: flow cytometry, DLL3/H82 cells
Set-up: key: geometric mean fluorescence intensity (flow cytometry)
Entries and their Emax

// known answers, use as guide
binder: hu30L3H1 (antibody, human IgG1, kappa, V domains shown) VH: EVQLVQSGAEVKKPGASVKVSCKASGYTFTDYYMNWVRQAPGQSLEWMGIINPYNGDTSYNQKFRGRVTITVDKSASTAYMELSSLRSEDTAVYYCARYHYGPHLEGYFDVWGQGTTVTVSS VL: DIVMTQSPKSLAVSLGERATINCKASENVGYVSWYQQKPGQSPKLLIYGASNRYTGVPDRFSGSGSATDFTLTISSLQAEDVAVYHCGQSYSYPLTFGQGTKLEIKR
Emax: 5530
--
binder: hu30L2H4 (antibody, human IgG1, kappa, V domains shown) VH: EVRLVQSGAEVKKPGASVKVSCKASGYTFTDYYMNWVRQAPGQSLEWMGIINPYSGDTSYNQKFRGRVTLTVDKSASTAYMELSSLRSEDTAVYYCARYHYGPHLEGYFDVWGQGTTVTVSS VL: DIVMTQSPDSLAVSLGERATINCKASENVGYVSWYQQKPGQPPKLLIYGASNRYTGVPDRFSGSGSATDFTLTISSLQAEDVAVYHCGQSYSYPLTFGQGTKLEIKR
Emax: 5440

In the following, a different binder is considered.
Entry hu30L2H1 (antibody, human IgG1, kappa, V domains shown) VH: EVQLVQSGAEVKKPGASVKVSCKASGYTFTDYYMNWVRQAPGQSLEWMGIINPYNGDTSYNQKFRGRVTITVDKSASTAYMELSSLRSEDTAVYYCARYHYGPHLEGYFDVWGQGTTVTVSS VL: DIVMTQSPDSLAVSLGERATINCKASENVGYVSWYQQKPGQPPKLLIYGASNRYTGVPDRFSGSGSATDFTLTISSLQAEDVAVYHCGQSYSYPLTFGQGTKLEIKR ; Emax = 5740
